Values compiled from patent US10562912B2.

target: STAT3 (Homo sapiens, UniProt P40763); construct: plasmid pSTAT3-TA-luc), which contains a stably operating STAT3 promoter; endogenous in cells; assay: STAT3 reporter gene assay (luciferase), LNCaP stable cell line (pSTAT3-TA-luc), IL-6 stimulation; assay type: cell-based
Sequence (P40763 whole entry): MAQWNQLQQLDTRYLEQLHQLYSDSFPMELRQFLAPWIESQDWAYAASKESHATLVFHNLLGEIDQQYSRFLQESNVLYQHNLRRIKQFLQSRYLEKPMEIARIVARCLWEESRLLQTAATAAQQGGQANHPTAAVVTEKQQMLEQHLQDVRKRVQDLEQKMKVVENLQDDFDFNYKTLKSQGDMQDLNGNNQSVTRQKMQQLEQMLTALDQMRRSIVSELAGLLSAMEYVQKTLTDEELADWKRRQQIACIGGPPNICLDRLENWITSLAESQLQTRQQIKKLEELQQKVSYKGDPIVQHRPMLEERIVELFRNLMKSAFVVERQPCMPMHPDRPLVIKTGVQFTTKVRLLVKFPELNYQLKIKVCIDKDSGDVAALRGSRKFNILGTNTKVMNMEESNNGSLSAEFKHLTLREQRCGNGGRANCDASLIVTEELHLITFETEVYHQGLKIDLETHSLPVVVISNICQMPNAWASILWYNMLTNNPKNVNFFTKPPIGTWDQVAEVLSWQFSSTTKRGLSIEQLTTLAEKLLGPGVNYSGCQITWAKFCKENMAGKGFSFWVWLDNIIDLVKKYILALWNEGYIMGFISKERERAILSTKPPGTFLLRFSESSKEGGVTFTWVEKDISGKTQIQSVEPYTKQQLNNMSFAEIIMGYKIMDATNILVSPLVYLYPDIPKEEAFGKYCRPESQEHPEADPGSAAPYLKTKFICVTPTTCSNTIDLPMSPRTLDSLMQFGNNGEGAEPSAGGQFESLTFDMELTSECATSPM
Assign labels as follows, please: satisfied for IC50 below 0.07 µM; not satisfied for IC50 equal to or exceeding 0.07 µM.

- CSc1ccc(C(C)(C)c2cc(Cl)cc(NC(=O)c3cc4cc(NS(C)(=O)=O)ccc4s3)c2)cc1: satisfied
- CS(=O)(=O)Nc1ccc2sc(C(=O)Nc3cc(Cl)cc(Oc4cc(Cl)cc(OC(F)(F)F)c4)c3)cc2c1: not satisfied
- CN(C)S(=O)(=O)Nc1ccc2cc(C(=O)Nc3cccc(-c4ccc(F)cc4F)c3)[nH]c2c1: not satisfied
- CS(=O)(=O)Nc1ccc2cc(C(=O)Nc3cc(-c4cnc(N)nc4)cc(-c4ccc(F)cc4F)c3)[nH]c2c1: not satisfied
- CS(=O)(=O)Nc1cc2cc(C(=O)Nc3cc(Cl)cc(Oc4cccc(OC(F)(F)F)c4)c3)sc2cc1Cl: satisfied
- CC(C)(c1cc(Cl)cc(NC(=O)c2cc3cc(NS(C)(=O)=O)c(Cl)cc3s2)c1)N1CCCCC1: not satisfied
- CS(=O)(=O)Nc1ccc2cc(C(=O)Nc3cccc(S(=O)(=O)c4cccc(C#N)c4)c3)[nH]c2c1: not satisfied
- CC(C)Oc1cc(CN2CCS(=O)(=O)CC2)cc(C(C)(C)c2cc(Cl)cc(NC(=O)c3cc4cc(NS(C)(=O)=O)ccc4s3)c2)c1: not satisfied
- CS(=O)(=O)Nc1ccc2cc(C(=O)Nc3cc(-c4ccncc4)cc(-c4ccc(F)cc4F)c3)[nH]c2c1: not satisfied
- CC(C)Oc1cc(CN2CCN(C(=O)C(C)(C)C)CC2)cc(C(C)(C)c2cc(Cl)cc(NC(=O)c3cc4cc(NS(C)(=O)=O)ccc4s3)c2)c1: not satisfied
- CC(C)Oc1cc(N2CCOCC2)cc(C(C)(C)c2cc(Cl)cc(NC(=O)c3cc4cc(NS(C)(=O)=O)ccc4s3)c2)c1: satisfied
- Cc1c(C(=O)Nc2cc(Br)cc(-c3ccc(F)cc3F)c2)sc2cc(NS(C)(=O)=O)ccc12: not satisfied
- CCCOc1cc(OC(F)(F)F)cc(C(C)(C)c2cc(Cl)cc(NC(=O)c3cc4cc(NS(C)(=O)=O)ccc4s3)c2)c1: satisfied
